Biological target: UniProt:Q9P1W9
Assay: Pim enzyme assay (HTRF, 96-well), Pim-2
Assay type: biochemical
Conditions: full length recombinant Pim-2, biotinylated-BAD (S112) peptide, 10-point curve, 45 min RT, read-out: Pim-2 IC50 IP
pIC50: −log10 of the molar value.
RECORDED ENDPOINT: pIC50

Illustrative cases are given below, each with its answer.
O=C1NCCc2[nH]c(-c3c(F)ccc4ccc(Nc5ccccc5)nc34)cc21 [Example 227]: 8.41
O=C1NCCc2[nH]c(-c3cccc4ccc(N[C@H]5CCCNC5)nc34)cc21 [Example 123]: 7.92

[A] O=C1NCCc2[nH]c(-c3cccc4ccc(Nc5c(F)cccc5Cl)nc34)cc21 [Example 7]
[B] Nc1cccc(Nc2ccc3cccc(-c4cc5c([nH]4)CCNC5=O)c3n2)c1 [Example 110]
[C] O=C1NCCc2[nH]c(-c3cccc4ccc(NC5CCOCC5)nc34)cc21 [Example 85]
[D] CCN(c1cccnc1)c1ccc2cccc(-c3cc4c([nH]3)CCNC4=O)c2n1 [Example 32]
rank_up(items): orders items by reported pIC50 in ascending numerical order. Write out the labels following the order that was asked for.
C, A, B, D
(C: 7.65, A: 8.28, B: 8.54, D: 9.22)

----------
Biological target: Pim-2 (Homo sapiens (Human))
Experiment: Pim-Mn enzyme assay (HTRF, 384-well), Pim-2
Format: biochemical
Details: Pim-2 enzyme 0.5 pM, ATP 1.5 μM, BAD (S112) 0.5 μM, HTRF, 22-point curve; read-out: Pim-2-Mn IC50 IP
pIC50: −log10 of the molar value.
RECORDED ENDPOINT: pIC50

Cc1nc2ccc(F)c(-c3cc(C(N)=O)c(C)[nH]3)c2nc1NC1(C)CC1: 8.45
Cc1nc2cccc(-c3cc4c([nH]3)C3(CC3)CNC4=O)c2nc1NC1CC1: 8.42
CSc1nc2c(-c3cc4c([nH]3)CCNC4=O)cccc2c(=O)n1C: 7.92
Cc1nc2cccc(-c3cc4c([nH]3)CCNC4=O)c2nc1NC1CCCC(O)C1 (racemic): 8.46
Cc1nc2cccc(-c3cc4c([nH]3)CCNC4=O)c2nc1NC(C)c1cnccn1 (stereo not drawn): 6.79
CC(C)(C)Nc1nc2c(-c3cc4c([nH]3)CCNC4=O)cccc2nc1C#N: 8.42

[I] CC(C)(C)Nc1cnc2cccc(-c3cc4c([nH]3)CCNC4=O)c2n1
[II] Cc1nc2cccc(-c3cc4c([nH]3)CCNC4=O)c2nc1NCC(C)(C)O
[III] Cc1nc2cccc(-c3cc4c([nH]3)CCNC4=O)c2nc1N[C@H]1CC[C@H](O)CC1
// sort entries: pIC50, high to low // list labels; follow requested order
I, III, II
(I: 9.52, III: 8.40, II: 8.06)

----------
Target: Pim-1 (Homo sapiens (Human), UniProt P11309)
Sequence (P11309 whole entry): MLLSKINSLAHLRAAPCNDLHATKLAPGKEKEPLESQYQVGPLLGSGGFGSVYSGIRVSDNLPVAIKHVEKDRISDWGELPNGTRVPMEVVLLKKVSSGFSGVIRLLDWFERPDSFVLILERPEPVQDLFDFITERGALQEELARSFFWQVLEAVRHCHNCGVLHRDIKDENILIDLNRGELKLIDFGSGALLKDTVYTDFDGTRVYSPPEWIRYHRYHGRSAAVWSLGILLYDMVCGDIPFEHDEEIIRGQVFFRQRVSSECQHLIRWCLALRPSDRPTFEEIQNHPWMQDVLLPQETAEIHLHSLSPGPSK
Experiment: Pim-Mn enzyme assay (HTRF, 384-well), Pim-1
Type: biochemical
Conditions: Pim-1 enzyme 5 pM, ATP 1.5 μM, BAD (S112) 0.5 μM, HTRF, 22-point curve; read-out: Pim-1-Mn IC50 IP
pIC50: −log10 of the molar value.
RECORDED ENDPOINT: pIC50

Cc1nc2cccc(-c3cc4c([nH]3)CCNC4=O)c2nc1NC(C)(C)CNC(=O)OC(C)(C)C: 7.29
C[C@H]1NC(=O)c2cc(-c3cccc4c(=O)n(-c5cccnc5)c(NC(C)(C)C)nc34)[nH]c21: 9.14
Cc1nc2cccc(-c3c[nH]c(C(N)=O)c3)c2nc1NC(C)(C)C: 7.58
Cc1nc2cccc(-c3cc4c([nH]3)CCNC4=O)c2nc1NC(C)(C)CN: 8.16
Cc1nc2cccc(-c3cc4c([nH]3)CCNC4=O)c2nc1N: 7.44

[A] CCN(c1cnc2cccc(-c3cc4c([nH]3)CCNC4=O)c2n1)C(C)(C)C
[B] Cc1nc2cccc(-c3cc4c([nH]3)CCNC4=O)c2nc1NCC(C)(C)N
Out of A and B , name the one with the higher pIC50. Reply with the label of the item you choose.
A
(A: 10.00, B: 8.37)

[P] CC(C)(C)Nc1nc2c(-c3cc4c([nH]3)CCNC4=O)cccc2nc1C(F)(F)F
[Q] Cc1nc2cccc(-c3cc4c([nH]3)CCNC4=O)c2nc1N[C@H]1CC[C@@H](N)C1 (single isomer, unassigned) [Example 142]
[R] Cc1nc2cccc(-c3cc4c([nH]3)CCNC4=O)c2nc1NC1CCC1
[S] C[C@H]1NC(=O)c2cc(-c3cccc4c(=O)n(CC(F)(F)F)c(NC(C)(C)C)nc34)[nH]c21
Put the items in sequence by pIC50, from largest down. Record the ranking as a list of labels in the requested order.
S, Q, R, P
(S: 9.80, Q: 9.15, R: 8.80, P: 8.38)

----------
Biological target: Pim-2 (Homo sapiens (Human), UniProt Q9P1W9)
Sequence (Q9P1W9 whole entry): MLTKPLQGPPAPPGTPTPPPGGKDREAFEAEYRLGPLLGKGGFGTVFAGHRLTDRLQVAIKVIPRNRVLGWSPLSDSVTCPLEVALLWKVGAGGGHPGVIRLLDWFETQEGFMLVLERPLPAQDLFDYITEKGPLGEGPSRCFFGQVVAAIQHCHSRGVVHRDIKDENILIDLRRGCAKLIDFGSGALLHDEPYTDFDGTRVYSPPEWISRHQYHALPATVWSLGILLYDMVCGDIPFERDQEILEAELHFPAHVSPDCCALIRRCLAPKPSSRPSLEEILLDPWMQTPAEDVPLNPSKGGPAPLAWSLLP
Assay: Pim-Mn enzyme assay (HTRF, 384-well), Pim-2
Format: biochemical
Settings: Pim-2 enzyme 0.5 pM, ATP 1.5 μM, BAD (S112) 0.5 μM, HTRF, 22-point curve; read-out: Pim-2-Mn IC50 IP
pIC50: −log10 of the molar value.
RECORDED ENDPOINT: pIC50

Worked cases, answers included:
Cc1nc2cccc(-c3cc4c([nH]3)CCNC4=O)c2nc1NC1(C)CC1: 9.52
Cc1nc2cccc(-c3cc4n(c3)C(=O)NC4=O)c2nc1NC(C)(C)C: 7.43
C[C@H]1NC(=O)c2cc(-c3cccc4c(=O)n(C5CCC5)c(NC(C)(C)C)nc34)[nH]c21: 9.22
Cc1nc2ccc(F)c(-c3cc4c([nH]3)[C@H](C)NC4=O)c2nc1NC1(C)CC1: 9.41

[I] Cc1nc2cccc(-c3cc4c([nH]3)[C@H](C)NC4=O)c2nc1NC1(C)CC1
[II] Cc1nc2cccc(-c3cc4c(=O)[nH]cnc4[nH]3)c2nc1NC(C)(C)CO
[III] Cc1nc2cccc(-c3cc4c([nH]3)C(C)CNC4=O)c2nc1NC1CC1 (single isomer, unassigned) [Example 160]
[IV] CC1(C)CN(c2cnc3cccc(-c4cc5c([nH]4)CCNC5=O)c3n2)CCN1
Please list these compounds in decreasing order of pIC50. Please express your ranking as an ordered list of the labels.
I, III, II, IV
(I: 9.70, III: 9.30, II: 8.24, IV: 7.24)

----------
Target: Pim-2 (Homo sapiens (Human))
Experiment: Pim-Mn enzyme assay (HTRF, 384-well), Pim-2
Type: biochemical
Details: Pim-2 enzyme 0.5 pM, ATP 1.5 μM, BAD (S112) 0.5 μM, HTRF, 22-point curve; read-out: Pim-2-Mn IC50 IP
RECORDED ENDPOINT: IC50 (nM)

CNc1nc2cccc(-c3cc4c([nH]3)CCNC4=O)c2nc1NC(C)(C)C: 5.61
Cc1nc2cccc(-c3[nH]c4c(c3Cl)C(=O)NC4)c2nc1NC1(C)CC1: 0.0783
C[C@H]1NC(=O)c2cc(-c3cccc4c(=O)n(CCCO)c(NC(C)(C)C)nc34)[nH]c21: 0.11
Cc1nc2cccc(-c3cc4c([nH]3)CCNC4=O)c2nc1N[C@@H]1CCNC1: 26.4
Cc1nc2cccc(-c3cc4c([nH]3)CCNC4=O)c2nc1N1CC(S(C)(=O)=O)C1: 26.7
Cc1nc2cccc(-c3cc4c([nH]3)C(COCc3ccccc3)NC4=O)c2nc1NC(C)(C)C (racemic): 7.94

[I] Cc1nc2cccc(-c3cc4c([nH]3)CCNC4=O)c2nc1NC1CCOC1 (racemic)
[II] Cc1nc2ccc(F)c(-c3cc4c([nH]3)C3(CC3)NC4=O)c2nc1NC1CC1
Lab notebook, comparison: I versus II , higher IC50 goes to which? State the label of the item chosen.
I

[I] Cc1nc2cccc(-c3cc4c([nH]3)CCNC4=O)c2nc1NC1(C)CCOCC1
[II] C[C@H]1NC(=O)c2cc(-c3cccc4c(=O)n(C)c(OC5(C)CC5)nc34)[nH]c21
[III] COCCOCC(C)(C)Nc1nc2c(-c3cc4c([nH]3)CCNC4=O)cccc2nc1C
[IV] Cc1nc2cccc(-c3cc4c([nH]3)CCNC4=O)c2nc1OCCC(C)(C)N
[V] Cc1nc2cccc(-c3cc4c([nH]3)CCNC4=O)c2nc1NC1CCNCC1
Ordering criterion: IC50; begin with the maximum. Return value: ordered labels per request.
IV, III, I, V, II
(IV: 65.3 nM, III: 14.7 nM, I: 5.6 nM, V: 2.4 nM, II: 1.01 nM)

[I] CNc1nc2c(-c3cc4c([nH]3)CCNC4=O)cccc2nc1C
[II] Cc1nc2cccc(-c3[nH]c4c(c3Br)C(=O)NCC4)c2nc1NC(C)(C)C
Kindly compare I with II and tell me which has the lower IC50 figure. Lab log: write the label of the selected item as the result.
II

[A] Cc1nc2cccc(-c3cc4c([nH]3)CCNC4=O)c2nc1NCC(C)(C)N
[B] Cc1nc2cccc(-c3cc4c(n3C(=O)OC(C)(C)C)CCNC4=O)c2nc1NC(C)(C)C
Lab notebook, comparison: A versus B , higher IC50 goes to which? Choose, then provide that item's label.
B

# credit: patent US9394297B2
